pIC50 values by entry
- experimental_target: recombinant CETP (rCETP) (Homo sapiens, UniProt P11597)
- Sequence (P11597 18-493): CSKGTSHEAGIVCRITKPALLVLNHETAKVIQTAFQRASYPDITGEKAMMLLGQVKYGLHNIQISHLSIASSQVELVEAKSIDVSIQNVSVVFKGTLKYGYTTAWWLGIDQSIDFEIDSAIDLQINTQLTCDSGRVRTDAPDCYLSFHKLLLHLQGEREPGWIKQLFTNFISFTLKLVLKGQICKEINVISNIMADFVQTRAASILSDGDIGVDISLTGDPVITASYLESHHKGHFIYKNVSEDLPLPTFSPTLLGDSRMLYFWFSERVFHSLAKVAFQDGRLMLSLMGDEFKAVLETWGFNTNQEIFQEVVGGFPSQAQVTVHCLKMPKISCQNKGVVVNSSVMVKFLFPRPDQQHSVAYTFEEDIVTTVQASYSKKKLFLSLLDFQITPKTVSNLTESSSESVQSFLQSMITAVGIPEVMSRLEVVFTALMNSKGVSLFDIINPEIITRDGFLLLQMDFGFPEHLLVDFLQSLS
- experiment_notes: RTA assay using recombinant CETP (2% RTA)
- Assay type: biochemical
- protocol_conditions: RTA assay in 2% human serum; read-out: IC50
pIC50: −log10 of the molar value.
value_type: pIC50

| compound_structure | experimental_target | value_type | val |
| --- | --- | --- | --- |
| COc1ccc([C@@H]2C[C@H]2C(=O)O)cc1-c1c(C)cc(N2CCC2)nc1CN1C(=O)O[C@H](c2cc(C(F)(F)F)cc(C(F)(F)F)c2)[C@@H]1C | recombinant CETP (rCETP) (Homo sapiens, UniProt P11597) | pIC50 | 8.40 |
| COC(=O)c1ccc(-c2ccc(OC)c(-c3ccc(N4CCC4)nc3CN3C(=O)O[C@H](c4cccc(C(F)(F)F)c4)[C@@H]3C)c2)c(C)c1 | recombinant CETP (rCETP) (Homo sapiens, UniProt P11597) | pIC50 | 7.66 |
| COc1cc(F)c(-c2ccc(C(=O)O)cc2C)cc1-c1cnc(N2CCC2)nc1CN1C(=O)O[C@H](c2ccc(F)cc2)[C@@H]1C | recombinant CETP (rCETP) (Homo sapiens, UniProt P11597) | pIC50 | 6.72 |
| COC(=O)c1cc(-c2ccc(OC)c(-c3ccc(N4CCC4)nc3CN3C(=O)O[C@H](c4cc(C(F)(F)F)cc(C(F)(F)F)c4)[C@@H]3C)c2)c(C)s1 | recombinant CETP (rCETP) (Homo sapiens, UniProt P11597) | pIC50 | 7.92 |
| COc1ccc(CCC(=O)O)cc1-c1cnc(N2CC(OC)C2)nc1CN1C(=O)O[C@H](c2cc(C(F)(F)F)cc(C(F)(F)F)c2)[C@@H]1C | recombinant CETP (rCETP) (Homo sapiens, UniProt P11597) | pIC50 | 6.38 |
| COc1ccc([C@H]2C[C@H](C(=O)O)C2)cc1-c1ccc(N2CCC2)nc1CN1C(=O)O[C@H](c2cc(C(F)(F)F)cc(C(F)(F)F)c2)[C@@H]1C | recombinant CETP (rCETP) (Homo sapiens, UniProt P11597) | pIC50 | 8.22 |

====

- experimental_target: recombinant CETP (rCETP) (Homo sapiens, UniProt P11597)
- experiment_notes: RTA assay using recombinant CETP (2% RTA)
- Format: biochemical
- protocol_conditions: RTA assay in 2% human serum; read-out: IC50
IC50 values by entry

| compound_structure | IC50 |
| --- | --- |
| COC(=O)[C@H]1CC[C@H](c2ccc(Cl)c(-c3cnc(N4CC(F)(F)C4)nc3CN3C(=O)O[C@H](c4cc(C(F)(F)F)cc(C(F)(F)F)c4)[C@@H]3C)c2)CC1 | 94 nM |
| COc1ccc([C@@H]2C[C@H]2C(N)=O)cc1-c1ccc(N2CCC2)nc1CN1C(=O)O[C@H](c2cc(C)cc(C)c2)[C@@H]1C | 54 nM |
| COC(=O)CC(C)(C)c1ccc(OC)c(-c2ccc(N3CCC3)nc2CN2C(=O)O[C@H](c3cccc(C(F)(F)F)c3)[C@@H]2C)c1 | 44 nM |
| COc1ccc([C@H]2CC[C@H](C(=O)O)CC2)cc1-c1ccc(N2CCC2)nc1CN1C(=O)O[C@H](c2ccc(F)c(F)c2)[C@@H]1C | 161 nM |
| COc1ccc(CCC(=O)O)cc1-c1ccc(N2CC(F)(F)C2)nc1CN1C(=O)O[C@H](c2cc(C(F)(F)F)cc(C(F)(F)F)c2)[C@@H]1C | 13 nM |
| COc1ccc(-c2ccc(C(=O)O)s2)cc1-c1ccc(N2CCC2)nc1CN1C(=O)O[C@H](c2cc(C(F)(F)F)cc(C(F)(F)F)c2)[C@@H]1C | 51 nM |
| COc1cc2c(cc1-c1cnc(N3CC(F)(F)C3)nc1CN1C(=O)O[C@H](c3cc(C(F)(F)F)cc(C(F)(F)F)c3)[C@@H]1C)[C@H](CC(=O)O)CC2 | 55 nM |
| COC(=O)c1ccc(-c2cc(-c3cnc(N4CC(OC)C4)nc3CN3C(=O)O[C@H](c4cc(C(F)(F)F)cc(C(F)(F)F)c4)[C@@H]3C)c(OC)cc2F)c(C)c1 | 55 nM |
| COc1cc(F)c(-c2ccc(C(=O)O)cc2C)cc1-c1cnc(N2CC(F)C2)nc1CN1C(=O)O[C@H](c2cc(C(F)(F)F)cc(C(F)(F)F)c2)[C@@H]1C | 10 nM |
| COc1ccc(CCC(=O)O)cc1-c1ccc(N2CCC2)nc1CN1C(=O)O[C@H](c2cc(F)c(F)c(F)c2)[C@@H]1C | 223 nM |
| COc1cc(F)c([C@H]2C[C@@H](C(=O)O)C2)cc1-c1ccc(N2CCC2)nc1CN1C(=O)O[C@H](c2cc(C(F)(F)F)cc(C(F)(F)F)c2)[C@@H]1C | 31 nM |

====

- experimental_target: recombinant CETP (rCETP) (Homo sapiens, UniProt P11597)
- Sequence (P11597 18-493): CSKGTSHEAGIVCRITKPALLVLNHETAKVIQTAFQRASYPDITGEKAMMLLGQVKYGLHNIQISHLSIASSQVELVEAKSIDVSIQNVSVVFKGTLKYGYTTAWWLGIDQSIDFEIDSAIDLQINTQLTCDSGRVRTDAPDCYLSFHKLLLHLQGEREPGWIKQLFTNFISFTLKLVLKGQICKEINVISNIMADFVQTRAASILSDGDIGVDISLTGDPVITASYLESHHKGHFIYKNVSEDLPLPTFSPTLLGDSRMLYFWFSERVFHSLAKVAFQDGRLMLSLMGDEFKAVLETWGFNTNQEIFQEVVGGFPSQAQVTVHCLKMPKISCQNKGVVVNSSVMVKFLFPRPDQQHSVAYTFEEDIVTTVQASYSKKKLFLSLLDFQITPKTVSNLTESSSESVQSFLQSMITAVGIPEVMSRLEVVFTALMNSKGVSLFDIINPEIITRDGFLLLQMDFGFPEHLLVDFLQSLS
- experiment_notes: RTA assay using recombinant CETP (2% RTA)
- Assay type: biochemical
- protocol_conditions: RTA assay in 2% human serum; read-out: IC50
Binning rule for recorded IC50: range A (below 20 nM), range B (20 nM to below 40 nM), range C (40 nM or more)

| molecule | assigned_label |
| --- | --- |
| COC(=O)CC(C)(C)c1ccc(OC)c(-c2ccc(N3CCC3)nc2CN2C(=O)O[C@H](c3cc(C)cc(C)c3)[C@@H]2C)c1 | range A |
| COc1ccc([C@H]2CC[C@H](C(=O)O)CC2)cc1-c1ccc(N2CC(F)(F)C2)nc1CN1C(=O)O[C@H](c2cc(F)cc(C(F)(F)F)c2)[C@@H]1C | range A |
| COc1ccc(C2CCC(O)C2)cc1-c1ccc(N2CCC2)nc1CN1C(=O)O[C@H](c2cc(C(F)(F)F)cc(C(F)(F)F)c2)[C@@H]1C (mixture of isomers) [Example 262] | range A |
| CCOC(=O)[C@H]1C[C@@H]1c1ccc(OC)c(-c2ccc(N3CCC3)nc2CN2C(=O)O[C@H](c3cc(C(F)(F)F)cc(C(F)(F)F)c3)[C@@H]2C)c1 | range A |
| COc1ccc(-c2cc(C(=O)O)co2)cc1-c1ccc(N2CCC2)nc1CN1C(=O)O[C@H](c2cc(C(F)(F)F)cc(C(F)(F)F)c2)[C@@H]1C | range B |
| COC(=O)c1cnc(-c2ccc(OC)c(-c3ccc(N4CCC4)nc3CN3C(=O)O[C@H](c4cc(C(F)(F)F)cc(C(F)(F)F)c4)[C@@H]3C)c2)cn1 | range C |
| Cc1cc(C(=O)O)ccc1-c1cc(F)cc(-c2ccc(N3CCC3)nc2CN2C(=O)O[C@H](c3cc(C(F)(F)F)cc(C(F)(F)F)c3)[C@@H]2C)c1 | range A |
| CCOC(=O)CCc1ccc(OC)c(-c2ccc(N3CCC3)nc2CN2C(=O)O[C@H](c3cccc(C(F)(F)F)c3)[C@@H]2C)c1 | range C |
| CCOC(=O)[C@@H]1CC1c1ccc(OC)c(-c2cnc(N3CCC3)nc2CN2C(=O)O[C@H](c3cc(C(F)(F)F)cc(C(F)(F)F)c3)[C@@H]2C)c1 (some centres unmarked) | range B |
| COc1ccc(CCC(=O)O)cc1-c1ccc(N2CC(F)(F)C2)nc1CN1C(=O)O[C@H](c2cccc(OC(F)(F)F)c2)[C@@H]1C | range C |
| COC(=O)CC(C)(C)c1ccc(OC)c(-c2cnc(N3CCC3)nc2CN2C(=O)O[C@H](c3cc(C(F)(F)F)cc(C(F)(F)F)c3)[C@@H]2C)c1 | range A |
| CCOC(=O)[C@@H]1C[C@@H]1c1ccc(OC)c(-c2ccc(N3CCC3)nc2CN2C(=O)O[C@H](c3cc(F)cc(F)c3)[C@@H]2C)c1 | range C |
| C[C@H]1[C@@H](c2cc(C(F)(F)F)cc(C(F)(F)F)c2)OC(=O)N1Cc1nc(N2CCC2)ncc1-c1cc(CCC(=O)O)ccc1Cl | range B |
| CCOC(=O)[C@@H]1CC1c1ccc(OC)c(-c2cnc(N3CC(F)(F)C3)nc2CN2C(=O)O[C@H](c3cc(C(F)(F)F)cc(C(F)(F)F)c3)[C@@H]2C)c1 (some centres unmarked) | range A |
| COc1ccc([C@H]2CC[C@H](C(=O)OC)CC2)cc1-c1ccc(N2CCC2)nc1CN1C(=O)O[C@H](c2cc(F)c(F)c(F)c2)[C@@H]1C | range C |
| COc1ccc(-c2ncc(C(=O)O)n2C)cc1-c1ccc(N2CCC2)nc1CN1C(=O)O[C@H](c2cc(C(F)(F)F)cc(C(F)(F)F)c2)[C@@H]1C | range B |
| COc1ccc([C@H]2C[C@@H](C(=O)OC)C2)cc1-c1ccc(N2CCC2)nc1CN1C(=O)O[C@H](c2cc(C(F)(F)F)cc(C(F)(F)F)c2)[C@@H]1C | range A |
| COc1ccc([C@H]2CC[C@H](C(=O)O)CC2)cc1-c1ccc(N2CC(F)(F)C2)nc1CN1C(=O)O[C@H](c2cccc(OC(F)(F)F)c2)[C@@H]1C | range C |
| COC(=O)CCc1ccc(Cl)c(-c2ccc(N3CCC3)nc2CN2C(=O)O[C@H](c3cc(C(F)(F)F)cc(C(F)(F)F)c3)[C@@H]2C)c1 | range A |
| COc1ccc(CC(=O)O)cc1-c1ccc(N2CCC2)nc1CN1C(=O)O[C@H](c2cc(C(F)(F)F)cc(C(F)(F)F)c2)[C@@H]1C | range B |
| COc1ccc([C@H]2C[C@H](C(=O)OC)C2)cc1-c1ccc(N2CCC2)nc1CN1C(=O)O[C@H](c2cc(C(F)(F)F)cc(C(F)(F)F)c2)[C@@H]1C | range A |
| COc1ccc([C@@H]2C[C@H]2C(=O)O)cc1-c1ccc(N2CCC2)nc1CN1C(=O)O[C@H](c2cc(F)cc(F)c2)[C@@H]1C | range C |
| COc1ccc(-c2c(C)cc(C(=O)O)n2C)cc1-c1ccc(N2CCC2)nc1CN1C(=O)O[C@H](c2cc(C(F)(F)F)cc(C(F)(F)F)c2)[C@@H]1C | range A |
